# Assay System: T1, hROR2ECD-his (human, UniProt Q01974 34-403)
# T1 construct: extracellular domain; bought, Acrobiosystems R02-H52E5; also called huROR2-his
# T1 sequence (Q01974 34-403): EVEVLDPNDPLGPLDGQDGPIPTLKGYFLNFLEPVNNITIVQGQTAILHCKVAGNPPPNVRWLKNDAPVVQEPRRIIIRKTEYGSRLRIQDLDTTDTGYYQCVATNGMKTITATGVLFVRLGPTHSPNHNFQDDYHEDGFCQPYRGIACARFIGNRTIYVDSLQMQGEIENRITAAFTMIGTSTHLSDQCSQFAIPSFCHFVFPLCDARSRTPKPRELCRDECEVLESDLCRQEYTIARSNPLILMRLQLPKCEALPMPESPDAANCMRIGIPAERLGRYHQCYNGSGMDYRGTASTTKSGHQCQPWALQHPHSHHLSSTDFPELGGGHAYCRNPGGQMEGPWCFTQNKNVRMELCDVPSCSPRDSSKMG
# Measurement Description: ELISA, plate coated with hROR2 ECD-his
Measurement Type: ELISA signal (called MFI)
Form rule: numeric answer, no unit written next to it.

{"Binder": "PR001416 (antibody, human IgG1, kappa, V domains shown, fully human IgG1, kappa) VH: QVQLVESGGGVVQPGRSLRLSCAASGFTFSTYGMHWVRQAPGKGLEWVAVIWYDGSDKDYADSVKGRFTISRDTSKNTLYLQMNSLRAEDTAVYYCAREQARSFDLWGRGTLVTVSS VL: DIVMTQSPSTLSASVGDRVTITCRASQTINNWLAWYQQKPGKAPKLLIYKASSLESGVPSRFSGSGSGTEFTLTISSLQPDDFATYYCQQYNSYSPMYTFGQGTKVEIKR", "Measurement Type": "ELISA signal (called MFI)", "Measured Result": 0.0265}
{"Binder": "PR001357 (antibody, human IgG1, kappa, V domains shown, fully human IgG1, kappa) VH: QVQLVQSGGGVVQPGRSLRLSCAASGFTFSSYGMHWVRQAPGKGLEWVAVIWYDGSNKDYADSVKGRFTISRDTSKNTLYLQMNSLRAEDTAVYYCAREQARSFDLWGRGTLVTVSS VL: DIQLTQSPYSLSASVGDRVTITCRASQTINNWLAWYQQKPGKAPKLLIYKASSLESGVPSRFSGSGSGTEFTLTISSLQPDDFATYYCQQYKLYSPMYTFGQGTKVEIKR", "Measurement Type": "ELISA signal (called MFI)", "Measured Result": 0.04}

Query: Form field: reported ELISA signal (called MFI) of PR001364 (antibody, human IgG1, kappa, V domains shown, fully human IgG1, kappa; also called anti-ROR1 1015M3-D8 hIgG1; PR001364(WT)) VH: EVQLLESGGGVVQPGRSLRLSCAASGFTFSSFGMHWVRQAPGKGLEWVAVIWYDGSDKDYADSVKGRFTISRDTSKNTLYLQMNSLRAEDTAVYYCAREQARSFDLWGRGTLVTVSS VL: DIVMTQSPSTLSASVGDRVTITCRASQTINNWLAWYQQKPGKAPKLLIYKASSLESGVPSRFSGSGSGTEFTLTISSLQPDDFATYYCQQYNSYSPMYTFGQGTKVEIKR
Result: 0.024
